Could you please report measured z-score for the items listed next?
ASSAY TEXT: S. cerevisiae RM11-1a growth modifiers, primary screen, strain RM11-1a, OD600, basal, 24 h (AID 1177);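 note: cultures grown under basal conditions with no added stressor; test concentration not given here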
RUN CONDITIONS: OD600, 24 h, higher = more signal, called active from +8 up or from −8 down
Answer using only a numeral; do not append any unit.

**Q:** I'd like to know its z-score. The molecule in question is CCCCCN1CC=CC23O[C@@H]4/C=C\CCC(C)OC(=O)C4[C@H]2C(=O)N(CCCCCCO)[C@@H]3C1=O (stereo partly drawn)
**A:** 0.422

**Q:** I'd like to know its z-score. The molecule in question is `C=CCN1C(=O)[C@]2(O[C@H](CCO)[C@@H]([Si](C)(C)c3ccc(OC)cc3)[C@@H]2C)c2cc(N3C(=O)COc4ccccc43)ccc21`
**A:** 2.96

**Q:** I'd like to know its z-score. The molecule in question is `[N-]=[N+]=NCc1ccccc1C[C@@]1(C(=O)N2CCCCC2)N=C(c2ccc(OCCCO)cc2)O[C@@H]1c1ccccc1CN=[N+]=[N-]`
**A:** 1.61

**Q:** I'd like to know its z-score. The molecule in question is `Cc1c(NC(=O)/C(C#N)=C/c2ccccc2Cl)c(=O)n(-c2ccccc2)n1C`
**A:** -0.688

**Q:** I'd like to know its z-score. The molecule in question is `COCC1=C2[C@@H](CCc3ccccc3)OB(O)C[C@@H]2[C@@H]2C(=O)N(C)C(=O)[C@@H]2C1`
**A:** 0.0903

**Q:** I'd like to know its z-score. The molecule in question is COc1ccc(C(O)C2C=CC3C(=O)N(c4ccccc4)C(=O)C3N2Nc2ccccc2F)cc1 (stereo not drawn)
**A:** -0.687

**Q:** I'd like to know its z-score. The molecule in question is `[N-]=[N+]=Nc1ccccc1C[C@]1(C(=O)O)N=C(c2ccc(OCCCO)cc2)O[C@H]1c1ccccc1`
**A:** -0.1

**Q:** I'd like to know its z-score. The molecule in question is `C=CCNC(=O)[C@H]1[C@@H]2C(=O)O[C@@H](c3ccccc3)[C@@H](c3ccccc3)N2[C@@H](c2ccc(OCCO)cc2)[C@]12C(=O)N(C(=O)OCCOC)c1ccc(C#Cc3ccc(OC)cc3)cc12`
**A:** 2.22

###

ASSAY TEXT: FRG1 promoter luciferase signal modulators, primary screen, FRG1 inhibition for FSHD, cell-based, C2C12 myotubes, firefly/Renilla luciferase, luminescence (AID 1084)
RUN CONDITIONS: higher = more signal, called active from +8 up or from −8 down
Kind request: treat -0.02 as inclusive, so z-score at -0.02 or higher is satisfied, anything lower is not satisfied.

**Q:** Check the entry `COC(=O)[C@@]1(Cc2ccccc2CN=[N+]=[N-])N=C(c2ccc(OCCCO)cc2)O[C@H]1c1ccccc1` : does z-score equal or exceed -0.02?
**A:** not satisfied

**Q:** Check the entry `[N-]=[N+]=NCc1ccccc1C[C@@]1(C(=O)N2CCCCC2)N=C(c2ccc(OCCCO)cc2)O[C@@H]1c1ccccc1CN=[N+]=[N-]` : does z-score equal or exceed -0.02?
**A:** not satisfied

**Q:** Check the entry `CC(=O)NCCCC[C@@H]1NC(=O)[C@H]2C[C@@H](C(=O)NCCCCCNC(=O)CS)[C@@H](c3cccc(OCCO)c3)N2C1=O` : does z-score equal or exceed -0.02?
**A:** satisfied

**Q:** Check the entry `O=C1O[C@H](c2ccccc2)[C@H](c2ccccc2)N2[C@H]1[C@@H](C(=O)N1CCCCCCC1)[C@]1(C(=O)Nc3ccc(C#CC4(O)CCCCCC4)cc31)[C@H]2c1ccc(O)cc1` : does z-score equal or exceed -0.02?
**A:** not satisfied

**Q:** Check the entry `C=C(CCCC)C(=O)CC[C@H](OC(=O)c1ccccc1-c1ccccc1C(=O)O)c1ccccc1OCCO` : does z-score equal or exceed -0.02?
**A:** not satisfied

**Q:** Check the entry `COc1ccc(C#Cc2ccc3c(c2)[C@]2(C(=O)N3)[C@H](C(=O)Nc3nc4ccccc4s3)[C@H]3C(=O)O[C@H](c4ccccc4)[C@H](c4ccccc4)N3[C@@H]2c2ccccc2OCCO)cc1` : does z-score equal or exceed -0.02?
**A:** satisfied

**Q:** Check the entry `CCCCC(=C=CC[C@H](O)c1ccc(OCCO)cc1)C[C@H](O)COCc1ccccc1` : does z-score equal or exceed -0.02?
**A:** not satisfied

**Q:** Check the entry `COCC(=C=CC[C@@H](O)c1cccc(OCCO)c1)CCO` : does z-score equal or exceed -0.02?
**A:** satisfied

**Q:** Check the entry `C=C[C@@H](C)[C@H](O)c1ccc(OCCO)cc1` : does z-score equal or exceed -0.02?
**A:** satisfied

**Q:** Check the entry `C=C(CCCC)C(=O)CC[C@@H](OC(=O)c1cccnc1)c1ccc(OCCO)cc1` : does z-score equal or exceed -0.02?
**A:** satisfied

**Q:** Check the entry `C=CCNC(=O)[C@@H]1[C@H]2C(=O)O[C@H](c3ccccc3)[C@H](c3ccccc3)N2[C@H](c2ccc(O)cc2)[C@@]12C(=O)N(C(=O)OCCOC)c1ccc(C#CCCO)cc12` : does z-score equal or exceed -0.02?
**A:** satisfied

**Q:** Check the entry `[N-]=[N+]=NC[C@H](Cc1ccccc1)NC(=O)c1ccccc1` : does z-score equal or exceed -0.02?
**A:** satisfied

**Q:** Check the entry `CO[C@H]1O[C@H](CO)[C@@H](OC(=O)Nc2cccc(F)c2)[C@H](OC(=O)Nc2ccccc2-c2ccccc2)[C@H]1OC(=O)Nc1ccccc1-c1ccccc1` : does z-score equal or exceed -0.02?
**A:** satisfied

**Q:** Check the entry `[N-]=[N+]=NCc1ccccc1[C@@H]1OC(c2ccc(OCCCO)cc2)=N[C@]1(Cc1ccccc1N=[N+]=[N-])C(=O)NCCN1CCOCC1` : does z-score equal or exceed -0.02?
**A:** satisfied

**Q:** Check the entry `COCCOC(=O)N1C(=O)[C@@]2(c3cc(C#CCC(C(=O)OC)C(=O)OC)ccc31)[C@H](C(=O)NC[C@H](O)c1ccccc1)[C@H]1C(=O)O[C@H](c3ccccc3)[C@H](c3ccccc3)N1[C@@H]2c1ccc(OCCO)cc1` : does z-score equal or exceed -0.02?
**A:** satisfied

**Q:** Check the entry CCN(CC)c1ccc(N2CC=CC34O[C@@H]5C=CCCOC(=O)C5[C@H]3C(=O)N(CCO)[C@@H]4C2=O)cc1 (some centres not stated) : does z-score equal or exceed -0.02?
**A:** not satisfied

**Q:** Check the entry `NCCCCCNC(=O)[C@H]1C[C@H]2C(=O)N[C@@H](Cc3ccccc3)C(=O)N2[C@H]1c1ccc(O)cc1` : does z-score equal or exceed -0.02?
**A:** satisfied

**Q:** Check the entry `O=C1O[C@H](c2ccccc2)[C@H](c2ccccc2)N2[C@H]1[C@@H](C(=O)O)[C@]1(C(=O)Nc3ccc(C#CC4(O)CCCCCC4)cc31)[C@H]2c1ccc(O)cc1` : does z-score equal or exceed -0.02?
**A:** not satisfied

**Q:** Check the entry `NC(=O)NCC#Cc1ccc2c(c1)[C@]1(C(=O)N2)[C@H](C(=O)N2CCN(c3ncccn3)CC2)[C@H]2C(=O)O[C@H](c3ccccc3)[C@H](c3ccccc3)N2[C@@H]1c1ccc(OCCO)cc1` : does z-score equal or exceed -0.02?
**A:** satisfied

**Q:** Check the entry CCCCCN1CC=CC23O[C@@H]4/C=C\CCC(C)OC(=O)C4[C@H]2C(=O)N(CCCCCCO)[C@@H]3C1=O (some centres not stated) : does z-score equal or exceed -0.02?
**A:** not satisfied

**Q:** Check the entry `COCCOC(=O)N1C(=O)[C@@]2(c3ccccc31)[C@H](c1ccc(OCCO)cc1)N1[C@H](c3ccccc3)[C@H](c3ccccc3)OC(=O)[C@H]1[C@@H]2C(=O)N1CCCCCCC1` : does z-score equal or exceed -0.02?
**A:** not satisfied

**Q:** Check the entry `COC(=O)[C@@]1(Cc2ccc(F)cc2)[C@H]2c3cc(C(=O)N(C)C)n(Cc4ccc(O)c(OC)c4)c3C[C@H]2CN1C(=O)c1ccccc1` : does z-score equal or exceed -0.02?
**A:** satisfied

**Q:** Check the entry `NC(=O)[C@@H]1[C@H]2C(=O)O[C@H](c3ccccc3)[C@H](c3ccccc3)N2[C@H](c2ccc(OCCO)cc2)[C@@]12C(=O)Nc1ccc(C#CCCO)cc12` : does z-score equal or exceed -0.02?
**A:** satisfied

**Q:** Check the entry `COCCOC(=O)N1C(=O)[C@@]2(c3cc(C#CCC(C(=O)OC)C(=O)OC)ccc31)[C@H](c1ccc(OCCO)cc1)N1[C@H](c3ccccc3)[C@H](c3ccccc3)OC(=O)[C@H]1[C@@H]2C(=O)Nc1nc2ccccc2s1` : does z-score equal or exceed -0.02?
**A:** satisfied

**Q:** Check the entry O=C1C2C=CC(C(O)c3cccc(O)c3)N(Nc3ccccc3)C2C(=O)N1c1ccccc1 (configuration not stated) : does z-score equal or exceed -0.02?
**A:** satisfied

**Q:** Check the entry `COCCOC(=O)N1C(=O)[C@@]2(c3ccccc31)[C@H](c1ccccc1OCCO)N1[C@H](c3ccccc3)[C@H](c3ccccc3)OC(=O)[C@H]1[C@@H]2C(N)=O` : does z-score equal or exceed -0.02?
**A:** not satisfied

**Q:** Check the entry C=CCC(OC(C)=O)[C@@H]1[C@@H](N(Cc2ccc(-c3ccccc3)cc2)C(=O)c2ccc(C)cc2)c2cc(OCCCO)ccc2N1C(=O)Cc1ccc2ccccc2c1 (some centres not stated) : does z-score equal or exceed -0.02?
**A:** not satisfied
